- measuredTarget: MCR-4 (Homo sapiens)
- Construct: expressed in transfected cells; host or cells: HEK 293
- Sequence (P32245 whole entry): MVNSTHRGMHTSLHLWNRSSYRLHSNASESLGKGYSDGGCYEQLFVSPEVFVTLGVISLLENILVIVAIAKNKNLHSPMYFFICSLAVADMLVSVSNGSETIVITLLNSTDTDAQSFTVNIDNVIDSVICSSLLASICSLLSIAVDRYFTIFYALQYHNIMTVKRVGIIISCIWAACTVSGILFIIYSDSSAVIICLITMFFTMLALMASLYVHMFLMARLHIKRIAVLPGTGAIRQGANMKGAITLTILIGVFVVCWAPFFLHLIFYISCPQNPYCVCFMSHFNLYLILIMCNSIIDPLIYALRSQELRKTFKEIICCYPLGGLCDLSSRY
- assay: Melanocortin receptor binding assay, competition with 125I-HP 467, HEK 293 cells expressing hMCR-4
- recordedConditions: inhibition of binding of 125I-HP 467, HEK 293 cells expressing MCR-4; TRG 2414 library; read-out: MC-4 IC50
readout: IC50 (µM)

Please review the entries below; each comes with its answer.
{"compound": "CCCOc1ccc(C2C(CNCc3ccc(OC)cc3)c3ccccc3CN2CCCCC(N)CN)cc1 (stereo not drawn)", "unitsText": "µM", "IC50": 6.83}
{"compound": "COc1ccc(CCNCC2c3ccccc3CN(CCCCC(CN)NCCc3ccccc3)C2c2cc(C(F)(F)F)cc(C(F)(F)F)c2)cc1 (stereo not drawn)", "unitsText": "µM", "IC50": 3.2}
{"compound": "NCC(CCCCN1Cc2ccccc2C(CNC2CCCCCC2)C1c1ccc(Cl)cc1Cl)NCc1ccccc1 (stereo not drawn)", "unitsText": "µM", "IC50": 5.67}
{"compound": "CC(C)Cc1ccc(C(C)CNC(CN)CCCCN2Cc3ccccc3C(CNC3CCCCCC3)C2c2cc(C(F)(F)F)cc(C(F)(F)F)c2)cc1 (stereo not drawn)", "unitsText": "µM", "IC50": 54.4}
{"compound": "COc1cccc(CNCC2c3ccccc3CN(CCCCC(CN)NCc3ccccc3)C2c2cccc(Oc3ccccc3)c2)c1 (stereo not drawn)", "unitsText": "µM", "IC50": 6.93}

a: NCC(N)CCCCN1Cc2ccccc2C(CNCc2ccccc2)C1c1ccc(Cl)cc1Cl (stereo not drawn)
b: COc1ccc(CCNCC2c3ccccc3CN(CCCCC(CN)NCCc3ccccc3)C2c2cccc(Oc3ccccc3)c2)cc1 (stereo not drawn)
Select the item whose IC50 value is smaller, choosing between a and b . # answer = label of selected item
a

I: COc1ccccc1CCNCC1c2ccccc2CN(CCCCC(N)CN)C1c1ccc(Oc2ccccc2)cc1 (mixture of isomers)
II: CC(C)Cc1ccc(C(C)CNC(CN)CCCCN2Cc3ccccc3C(CNCCc3cccc(Cl)c3)C2c2cc(C(F)(F)F)cc(C(F)(F)F)c2)cc1 (stereo not drawn)
III: NCC(N)CCCCN1Cc2ccccc2C(CNC2CCCCC2)C1c1cccc(Oc2ccccc2)c1 (stereo not drawn)
IV: COc1ccccc1CCNCC1c2ccccc2CN(CCCCC(CN)NCC(C)c2ccc(CC(C)C)cc2)C1c1cc(C(F)(F)F)cc(C(F)(F)F)c1 (mixture of isomers)
V: NCC(CCCCN1Cc2ccccc2C(CNCCc2cccc(Cl)c2)C1c1ccc(Cl)cc1Cl)NCCc1ccccc1 (stereo not drawn)
Order the entries by their reported IC50, beginning at the minimum. Present the labels in the sequence the task asks for.
III, V, I, IV, II
(III: 1.27 µM, V: 2.92 µM, I: 5.58 µM, IV: 17.5 µM, II: 42.6 µM)

P: CCOc1ccccc1CNCC1c2ccccc2CN(CCCCC(CN)NCc2ccccc2)C1c1cc(C(F)(F)F)cc(C(F)(F)F)c1 (stereo not drawn)
Q: NCC(CCCCN1Cc2ccccc2C(CNCc2ccccc2C(F)(F)F)C1c1cc(C(F)(F)F)cc(C(F)(F)F)c1)NCCc1ccccc1 (stereo not drawn)
// pick larger IC50 from pair: P vs Q # answer = label of selected item
Q
(Q: 30.2 µM, P: 7.51 µM)

P: COc1cccc(CNCC2c3ccccc3CN(CCCCC(CN)NCc3ccccc3)C2c2cc(C(F)(F)F)cc(C(F)(F)F)c2)c1 (stereo not drawn)
Q: CC(C)Cc1ccc(C(C)CNC(CN)CCCCN2Cc3ccccc3C(CNC3CCCCCC3)C2c2ccc(Cl)cc2Cl)cc1 (stereo not drawn)
R: COc1ccc(CNCC2c3ccccc3CN(CCCCC(N)CN)C2c2cccc(Oc3ccccc3)c2)cc1 (stereo not drawn)
S: NCC(N)CCCCN1Cc2ccccc2C(CNCc2ccccc2)C1c1ccc(Oc2ccccc2)cc1 (stereo not drawn)
T: NCC(CCCCN1Cc2ccccc2C(CNC2CCCCC2)C1c1cccc(Oc2ccccc2)c1)NCCc1ccccc1 (mixture of isomers)
Order the entries by their reported IC50, beginning at the minimum. Present the labels in the sequence the task asks for.
R, S, T, P, Q

###

- measuredTarget: MCR-1 (Homo sapiens)
- Construct: expressed in transfected cells; host or cells: HEK 293
- assay: Melanocortin receptor binding assay, competition with 125I-HP 467, HEK 293 cells expressing hMCR-1
- recordedConditions: 10 μM isoquinoline compound, HEK 293 cells expressing MCR-1, duplicate 2
readout: % Disp. of 125I-HP 467 (second of duplicate) (%)

{"compound": "CNC(CN)CCCCN1Cc2ccccc2C(CNC2CCCCC2)C1c1ccc(OC)c2ccccc12 (mixture of isomers)", "unitsText": "%", "measuredValue": 67.9}
{"compound": "CCNc1ccc(C2C(CNC3CCCCC3)c3ccccc3CN2CCCCC(CN)NC)cc1 (centres unmarked)", "unitsText": "%", "measuredValue": 85.2}
{"compound": "CN[C@H](CN)CCCCN1Cc2ccccc2C(CNC2CCCCC2)C1c1cccc2ccccc12 (some centres unmarked)", "unitsText": "%", "measuredValue": 60.4}
{"compound": "CNC(CN)CCCCN1Cc2ccccc2C(CNC2CCCCC2)C1c1ccccn1 (centres unmarked)", "unitsText": "%", "measuredValue": 43.4}
{"compound": "CNC(CN)CCCCN1Cc2ccccc2C(CNC2CCCCC2)C1c1ccc(OC)c(S(=O)(=O)O)c1 (centres unmarked)", "unitsText": "%", "measuredValue": 3.6}

A: CNC(CN)CCCCN1Cc2ccccc2C(CNC2CCCCC2)C1c1ccc(Oc2ccccc2)cc1 (centres unmarked)
B: CNC(CN)CN1Cc2ccccc2C(CNC2CCCCC2)C1c1ccc(Br)o1 (centres unmarked)
Select the item whose % Disp. of 125I-HP 467 (second of duplicate) value is smaller, choosing between A and B . # answer = label of selected item
B
(B: 56.8%, A: 95.5%)

###

- measuredTarget: MCR-1 (Homo sapiens, UniProt Q01726)
- Construct: expressed in transfected cells; host or cells: HEK 293
- Sequence (Q01726 whole entry): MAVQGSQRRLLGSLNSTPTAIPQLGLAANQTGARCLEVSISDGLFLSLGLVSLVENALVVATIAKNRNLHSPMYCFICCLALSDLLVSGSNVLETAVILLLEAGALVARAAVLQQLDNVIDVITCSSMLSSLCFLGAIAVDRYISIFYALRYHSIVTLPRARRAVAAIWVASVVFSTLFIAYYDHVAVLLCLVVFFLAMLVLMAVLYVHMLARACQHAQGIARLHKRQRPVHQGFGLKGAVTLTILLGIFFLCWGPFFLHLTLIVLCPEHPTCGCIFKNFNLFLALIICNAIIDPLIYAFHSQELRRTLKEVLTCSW
- assay: Melanocortin receptor binding assay, competition with 125I-HP 467, HEK 293 cells expressing hMCR-1
- recordedConditions: TRG 2414 library; inhibition of binding of 125I-HP 467, HEK 293 cells expressing MCR-1; read-out: MC-1 IC50
readout: IC50 (µM)

{"compound": "COc1ccccc1CCNCC1c2ccccc2CN(CCCCC(CN)NCc2ccccc2)C1c1ccccc1Br (centres unmarked)", "unitsText": "µM", "IC50": 3.56}
{"compound": "NCC(CCCCN1Cc2ccccc2C(CNC2CCCCCC2)C1c1ccccc1Br)NCCc1ccccc1 (centres unmarked)", "unitsText": "µM", "IC50": 4.41}
{"compound": "CCCOc1ccc(C2C(CNCc3ccccc3)c3ccccc3CN2CCCCC(CN)NCc2ccccc2)cc1 (centres unmarked)", "unitsText": "µM", "IC50": 1.95}

A: CCCOc1ccc(C2C(CNCCc3ccc(OC)cc3)c3ccccc3CN2CCCCC(N)CN)cc1 (centres unmarked)
B: COc1ccc(CNCC2c3ccccc3CN(CCCCC(CN)NCC(C)c3ccc(CC(C)C)cc3)C2c2ccccc2Br)cc1 (centres unmarked)
C: CCCOc1ccc(C2C(CNCc3ccccc3)c3ccccc3CN2CCCCC(CN)NCCc2ccccc2)cc1 (centres unmarked)
D: COc1cccc(CNCC2c3ccccc3CN(CCCCC(CN)NCc3ccccc3)C2c2ccccc2Br)c1 (centres unmarked)
E: NCC(CCCCN1Cc2ccccc2C(CNC2CCCCC2)C1c1ccccc1Br)NCCc1ccccc1 (centres unmarked)
Put the items in sequence by IC50, from largest down. Present the labels in the sequence the task asks for.
B, D, E, C, A

###

- measuredTarget: MCR-1 (Homo sapiens)
- Construct: expressed in transfected cells; host or cells: HEK 293
- assay: Melanocortin receptor binding assay, competition with 125I-HP 467, HEK 293 cells expressing hMCR-1
- recordedConditions: competition with 125I-HP 467, HEK 293 cells expressing MCR-1; read-out: MC-1 IC50
readout: IC50 (µM)

Please review the entries below; each comes with its answer.
{"compound": "CCNC(CN)CCCN1Cc2ccccc2C(CNC2CCCCC2)C1c1ccc(-c2ccccc2)cc1 (stereo not shown) [TRG 2411-127]", "readout": "IC50", "measuredValue": 1.48}
{"compound": "CCCCNc1ccc(C2C(CNCCc3ccccc3)c3ccccc3CN2CCCCC(CN)NCCCC)cc1 (stereo not shown) [TRG 2411-75]", "readout": "IC50", "measuredValue": 0.13}
{"compound": "CCNc1ccc(C2C(CNCCc3ccccc3)c3ccccc3CN2CCCCC(CN)NCc2ccccc2)cc1 (stereo not shown) [TRG 2411-43]", "readout": "IC50", "measuredValue": 0.19}
{"compound": "CCCCNC(CN)CCCCN1Cc2ccccc2C(CNC2CCCCC2)C1c1ccc(NCC)cc1 (stereo not shown) [TRG 2411-50]", "readout": "IC50", "measuredValue": 0.08}
{"compound": "CCCCNc1ccc(C2C(CN)c3ccccc3CN2CCCCC(CN)NCCCC)cc1 (stereo not shown) [TRG 2411-102]", "readout": "IC50", "measuredValue": 0.09}

a: CCNc1ccc(C2C(CN)c3ccccc3CN2CCCC[C@@H](CN)NCCc2ccc(Br)cc2)cc1 (stereo partly shown) [TRG 2411-64]
b: CCCCNc1ccc(C2C(CN)c3ccccc3CN2CCCCC(CN)NC)cc1 (stereo not shown) [TRG 2411-100]
Select the item whose IC50 value is smaller, choosing between a and b . # answer = label of selected item
b

I: CCNc1ccc(C2C(CN)c3ccccc3CN2CCCCC(N)CN)cc1 (stereo not shown) [TRG 2411-59]
II: CCCCNc1ccc(C2C(CN)c3ccccc3CN2CCCCC(CN)NCCc2ccccc2)cc1 (stereo not shown) [TRG 2411-104]
III: CCCCNC(CN)CCCCN1Cc2ccccc2C(CNCCc2ccccc2)C1c1ccc(-c2ccccc2)cc1 (stereo not shown) [TRG 2411-11]
IV: NCC(CCCCN1Cc2ccccc2C(CNCCc2ccccc2)C1c1ccc(-c2ccccc2)cc1)NCc1ccccc1 (stereo not shown) [TRG 2411-13]
Put the items in sequence by IC50, from largest down. Present the labels in the sequence the task asks for.
IV, III, I, II

1: CCNc1ccc(C2C(CN)c3ccccc3CN2CCCCC(CN)NCCN)cc1 (stereo not shown) [TRG 2411-71]
2: NCCN[C@H](CN)CCCCN1Cc2ccccc2C(CNCCc2ccccc2)C1c1ccc(-c2ccccc2)cc1 (stereo partly shown) [TRG 2411-5]
// pick larger IC50 from pair: 1 vs 2 # answer = label of selected item
2

1: CCCCNc1ccc(C2C(CN)c3ccccc3CN2CCCCC(CN)NCc2ccccc2)cc1 (stereo not shown) [TRG 2411-107]
2: CCNc1ccc(C2C(CNC3CCCCC3)c3ccccc3CN2CCCC[C@@H](CN)NCCC2CCCCC2)cc1 (stereo partly shown) [TRG 2411-58]
// pick larger IC50 from pair: 1 vs 2 # answer = label of selected item
1
